# tested.system: human GLP-1 receptor (human, UniProt P43220 24-463)
# test.details: cell-based or functional assay
Positions of bridges follow the written chain, without caps; N, C: chain ends. Non-standard residues stand in square brackets, D forms with d. No end group written: not given here. *: point of attachment. Acetyl(2-(4-imidazolyl)) = O=C(Cc1c[nH]cn1)*; Aib = CC(C)(N)C(=O)O
Consider the following binders; for each one, report its In vitro activity relative to native peptide (%), vs. GLP-1 (cAMP EC50).
Output spec: scalar in %, unitless text.

Request: Consider the binder H[Aib]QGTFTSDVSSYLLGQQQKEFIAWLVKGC [trigonal agonist of SEQ ID NO: 4] and give its measured In vitro activity relative to native peptide (%), vs. GLP-1 (cAMP EC50).
Response: 8.5

Request: Reported In vitro activity relative to native peptide (%), vs. GLP-1 (cAMP EC50), binder {Acetyl(2-(4-imidazolyl))}-[Aib]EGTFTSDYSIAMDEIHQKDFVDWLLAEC (bridge 15-19) [trigonal agonist of SEQ ID NO: 84] : ____
Response: 4.2

Request: In vitro activity relative to native peptide (%), vs. GLP-1 (cAMP EC50) lookup needed for H[Aib]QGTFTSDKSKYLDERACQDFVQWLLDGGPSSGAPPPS [trigonal agonist of SEQ ID NO: 40] , thanks.
Response: 75.2

Request: Name the reported In vitro activity relative to native peptide (%), vs. GLP-1 (cAMP EC50) value associated with the binder {Acetyl(2-(4-imidazolyl))}-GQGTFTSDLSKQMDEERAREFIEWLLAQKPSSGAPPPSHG [trigonal agonist of SEQ ID NO: 17]
Response: 0.2

Request: May I ask what In vitro activity relative to native peptide (%), vs. GLP-1 (cAMP EC50) has been recorded for {Acetyl(2-(4-imidazolyl))}-[Aib]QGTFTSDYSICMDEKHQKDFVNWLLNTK (bridge 15-19) [trigonal agonist of SEQ ID NO: 59] ?
Response: 40.3
